- assay.target: T1, human PD-L1 expressed on mammalian cells (human, UniProt Q9NZQ7 19-290)
- T1 construct: whole, on cells; also called PDL1-CHOK1 cells; PDL1-Raji cells
- T1 sequence (Q9NZQ7 19-290): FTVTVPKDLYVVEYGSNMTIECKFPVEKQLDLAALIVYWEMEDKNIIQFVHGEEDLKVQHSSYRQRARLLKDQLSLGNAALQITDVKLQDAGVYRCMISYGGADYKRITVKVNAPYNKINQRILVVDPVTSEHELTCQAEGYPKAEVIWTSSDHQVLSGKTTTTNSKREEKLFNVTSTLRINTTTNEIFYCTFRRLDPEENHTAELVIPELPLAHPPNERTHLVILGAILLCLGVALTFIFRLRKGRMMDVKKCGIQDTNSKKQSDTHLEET
- assay.summary: flow cytometry (MFI) on PDL1-CHOK1 cells; EC50 table has no unit, x axis Antibodies(nM)
property: pEC50
Conceptually, pEC50 converts a concentration in mol/L into minus its log10.

[in] So what's the measured pEC50 for this one? H1210 chimera (antibody, V domains shown, also called chimeric antibody) VH: EVKLVESGGDLVKPGGSLKLSCAASGFTFSSYDMSWVRQTPEKSLEWVATISDGGGYIYYSDSVKGRFTISRDNAKNNLYLQMSSLRSEDTALYICAREFGKRYALDYWGQGTSVTVSS VL: DIVMTQSHKFMSTSVGDRVSISCKASQDVTPAVAWYQQKPGQSPKLLIYSTSSRYTGVPDRFTGSGSGTDFTFTISSVQAEDLAVYYCQQHYTTPLTFGAGTKLELK
[out] 9.02

[in] So what's the measured pEC50 for this one? Hu1210-5 (antibody, V domains shown, Hu1210 VH.2a x Vk.1; human gamma 1 / kappa constant domains) VH: EVQLVESGGGLVKPGGSLRLSCAASGFTFSSYDMSWIRQAPGKGLEWVATISDGGGYIYYSDSVKGRFTISRDNAKNSLYLQMNSLRAEDTAVYYCAREFGKRYALDYWGQGTTVTVSS VL: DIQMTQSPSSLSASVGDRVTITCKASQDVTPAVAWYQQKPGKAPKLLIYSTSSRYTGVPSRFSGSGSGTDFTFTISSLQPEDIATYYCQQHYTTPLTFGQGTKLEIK
[out] 8.84

[in] So what's the measured pEC50 for this one? Hu1210-3 (antibody, V domains shown, Hu1210 VH.1b x Vk.1; human gamma 1 / kappa constant domains) VH: EVQLVESGGGLVKPGGSLRLSCAASGFTFSSYDMSWVRQAPGKSLEWVATISDGGGYIYYSDSVKGRFTISRDNAKNSLYLQMNSLRAEDTAVYICAREFGKRYALDYWGQGTTVTVSS VL: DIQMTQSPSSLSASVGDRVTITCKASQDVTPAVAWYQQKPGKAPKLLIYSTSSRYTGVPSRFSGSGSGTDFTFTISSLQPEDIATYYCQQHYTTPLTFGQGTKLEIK
[out] 8.86
